Values from PubChem BioAssay AID1159580

test: chemical genetic growth profiling, strain panel (AID 1159580);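 further: tested at 20 µM; growth read once vehicle control cultures reached saturation at 30 °C; 1 = growth at the plate median or of vehicle wells; lower values mean less growth of the strain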; conditions: S. cerevisiae deletion strains, growth OD, locus YPL055C, strain LGE1
The campaign covered roughly 5,500 compounds. About 2,000 (36%) were called active. Roughly 18% stayed inconclusive and do not appear here. No stated cut-off is given here; in the data, active means normalized growth mostly below about 0.91 (no sharp cut-off); inconclusive means no clear call, values can overlap the other calls; inactive means mostly above about 0.92. This is one part of the list. Where a SMILES comes first, the peptide text is derived from it. Bridges are numbered along the chain shown (N, C = ends). [ ]: non-standard residue; d: D form. The star is where a group is joined. Octanoyl(6-Me) = CCC(C)CCCCC(=O)*; Orn = NCCC[CH](N)C(=O)O; Dab = NCC[CH](N)C(=O)O
// classify into active, inactive

Examples with answers:
# MOLECULE, CATEGORY
measured = [
    ("N#Cc1nccnc1Sc1ccc(Cl)cc1", "inactive"),
    ("Cc1cc(C)cc(N2C(=O)CC(Sc3ccccc3C(=O)O)C2=O)c1 (stereo unspecified)", "inactive"),
    ("CCC(C)CCCCC(=O)NC(CCN)C(=O)NC(C(=O)NC(CCN)C(=O)NC1CCNC(=O)C(C(C)O)NC(=O)C(CCN)NC(=O)C(CCN)NC(=O)C(CC(C)C)NC(=O)C(Cc2ccccc2)NC(=O)C(CCN)NC1=O)C(C)O (stereo unspecified) ({Octanoyl(6-Me)}-[Dab]T[Dab][Dab][Dab]FL[Dab][Dab]T; lactam 4-C; configuration not given here)", "inactive"),
    ("CC(C)CC1NC(=O)C(CCCN)NC(=O)C(C(C)C)NC(=O)C2CCCN2C(=O)C(Cc2ccccc2)NC(=O)C(CC(C)C)NC(=O)C(CCCN)NC(=O)C(C(C)C)NC(=O)C2CCCN2C(=O)C(Cc2ccccc2)NC1=O (stereo unspecified) (cyclo(FPV[Orn]LFPV[Orn]L); configuration not given here)", "inactive"),
    ("O=c1cc(C(F)(F)F)[nH]c2c(Cl)cccc12", "active"),
]

Could you now consider this next molecule?
Ask: Dear colleague, could you share the recorded outcome for `COC(=O)CSCCc1nc(-c2ccc([N+](=O)[O-])cc2)cs1` when you have a moment?
Reply: inactive

----------
test: chemical genetic growth profiling, strain panel (AID 1159580);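 further: tested at 20 µM; growth read once vehicle control cultures reached saturation at 30 °C; 1 = growth at the plate median or of vehicle wells; lower values mean less growth of the strain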; settings: S. cerevisiae deletion strains, growth OD, locus YAL026C, strain drs2, hits give low values
Among all 5,500 compounds or so, about 2,000 (36%) were called active. Another 18% or so got no clear call; they are omitted. Some of the results follow. *1 amine or outer side, *2 acyl side, *3 side chain or, on linkers, in order; H or OH if unused. Where a SMILES comes first, the peptide text is derived from it. Bridges are numbered along the chain shown (N, C = ends). [ ]: non-standard residue; d: D form. The star is where a group is joined. ξ: configuration not given here. ΔAla(E,3-NHCONH2) = NC(=O)N/C=C(/N)C(=O)O; X2 = NC1=NCCC(C(N[*:1])C(=O)[*:2])N1; ξβ3hOrn = NCCCC(N)CC(=O)*; Dap = NC[CH](N)C(=O)O
# reported normalized growth; entries follow
Answer field: number only, no words.

# COMPOUND, normalized growth
data = [
    ("CC(=O)NS(=O)(=O)c1ccc(NC(=O)c2ccccc2C(=O)O)cc1", 1.02),
    ("CNS(=O)(=O)c1ccc(NC(=O)c2ccccc2C(=O)O)cc1", 1),
]

Ask: Return normalized growth for the following compound: C#CC1(O)CCC2C3CCC4=CC(=O)CCC4(C)C3CCC21C (stereo unspecified)
Reply: 0.982

Ask: Supply measured normalized growth of `CC(=O)NO` in your reply.
Reply: 0.997

Ask: Respond only with normalized growth recorded for NCCCC(N)CC(=O)NCC1NC(=O)C(CO)NC(=O)C(N)CNC(=O)C(C2CCN=C(N)N2)NC(=O)/C(=C\NC(N)=O)NC1=O (stereo not drawn) (H-[Dap]S[Dap](ξβ3hOrn)[ΔAla(E,3-NHCONH2)][X2]; lactam 1-C; configuration not given here)
Reply: 0.994

Ask: Recall and state the measured normalized growth for CC(=O)OCC(=O)[C@@]12OC3(CCCC3)O[C@@H]1CC1C3CCC4=CC(=O)C=C[C@]4(C)[C@@]3(F)[C@@H](O)C[C@@]12C (stereo partly specified) .
Reply: 1.02

Ask: Item `COc1ccc([C@H]2COc3c(ccc(O)c3OC)C2)c(OC)c1O` : provide normalized growth
Reply: 0.975

Ask: Return normalized growth for the following compound: `Cc1cc(C(C)(C)C)cc(C)c1CC1=NCCN1`
Reply: 0.986

Ask: For the compound `O=c1c(O)c(-c2ccc(O)c(O)c2)oc2cc(O)ccc12` , give its reported normalized growth.
Reply: 0.965

Ask: Please give the documented normalized growth of C[C@]12CCC(=O)C=C1CCC1C2C(=O)C[C@@]2(C)C1CC[C@]2(O)C(=O)CO (stereo partly specified)
Reply: 1

Ask: Kindly indicate its recorded normalized growth. Item: CC(=O)OCC(=O)[C@@]1(O)CCC2C3CCC4=CC(=O)CC[C@]4(C)C3[C@@H](O)C[C@@]21C (stereo partly specified)
Reply: 1.02

Ask: For `CN1CCN(CCCN2c3ccccc3Sc3ccc(C(F)(F)F)cc32)CC1` , write its normalized growth.
Reply: 0.0611

Ask: Entry C#C[C@]1(O)CCC2C3CCC4=Cc5oncc5C[C@]4(C)C3CC[C@@]21C (stereo partly specified) needs its normalized growth filled in; supply it.
Reply: 0.977

Ask: Supply measured normalized growth of `CCNc1nc(Cl)nc(NCC)n1` in your reply.
Reply: 1

Ask: Please indicate normalized growth recorded for COc1cc2c(cc1O)CCNC2C (stereo unspecified)
Reply: 1

Ask: Determine from records and report normalized growth for `NC(=O)NO`
Reply: 1.03

Ask: Please give the documented normalized growth of `CCCCc1nc(Cl)c(CO)n1Cc1ccc(-c2ccccc2-c2nn[nH]n2)cc1`
Reply: 0.99

Ask: For the compound C[C@]12CCC(=O)C=C1CCC1C2[C@@H](O)C[C@@]2(C)C1CC[C@]2(O)C(=O)COC(=O)CCC(=O)O (stereo partly specified) , give its measured normalized growth value.
Reply: 1.01

Ask: State its normalized growth for this compound: `COc1cc(-c2oc3cc(O)ccc3c(=O)c2O)ccc1O`
Reply: 0.873

Ask: Give recorded normalized growth. `Cc1ccc(N(CC2=NCCN2)c2cccc(O)c2)cc1`
Reply: 1.02

Ask: For the compound `CN1CCN(CCC=C2c3ccccc3Sc3ccc(S(=O)(=O)N(C)C)cc32)CC1` , report normalized growth.
Reply: 0.767
